Taken from patent US8178506B2.

Assignment: determine reported GLUT4 mRNA for the given substances.
- Tested on: Glut4
- Test: Glut4 mRNA expression in adipocytes (real-time PCR)
- Type: cell-based, human
- Settings: differentiating adipocytes transfected with oligomeric compound; Table 75
In the oligonucleotide strings, read from the 5' end, every base follows the letter of its sugar. An asterisk marks phosphorothioate; unmarked linkages are phosphodiester. Other units and linkages are bracketed, terminal groups are in braces. A string of capitals states the bases alone. e = 2'-O-(2-methoxyethyl) (MOE); [5mC] = 5-methylcytosine

I'm curious: which GLUT4 mRNA was measured for 328136 (eA*eA*e[5mC]*eT*eA*e[5mC]*eT*eT*e[5mC]*e[5mC]*eA*eG*eA*eG*e[5mC]*eA*eG*eG*eT*eG*eA; anti-miR) [compound 328136] tested on Glut4?
35 percentage of untreated control (UTC)

I'm curious: which GLUT4 mRNA was measured for 346695 (CACUGGUACAAGGGUUGGGAGA; all 2'-MOE, all phosphorothioate, methylation of C and T or U not given here) [compound 346695] tested on Glut4?
58 percentage of untreated control (UTC)

I'm curious: which GLUT4 mRNA was measured for 341806 (antisense GCCAATATTTCTGTGCTGCTA; all 2'-MOE, all phosphorothioate, methylation of C not given here) [compound 341806] tested on Glut4?
58 percentage of untreated control (UTC)

----------
- Tested on: HeLa cells
- Test: Cell cycle assay in HeLa cells
- Type: cell-based, human
- Settings: HeLa cells, 150 nM oligomeric compound, 24 hours, relative to untreated control (UTC = 100)
In the oligonucleotide strings, read from the 5' end, every base follows the letter of its sugar. An asterisk marks phosphorothioate; unmarked linkages are phosphodiester. Other units and linkages are bracketed, terminal groups are in braces. A string of capitals states the bases alone. e = 2'-O-(2-methoxyethyl) (MOE); [5mC] = 5-methylcytosine; d = 2'-deoxy (DNA)
Assignment: determine reported % cells in cell cycle phase S for the given substances.
// return numeric value only (unit: %, not printed)

Give its % cells in cell cycle phase S value. Item: 327919 (antisense eG*eA*eA*eA*e[5mC]*e[5mC]*e[5mC]*eA*eG*e[5mC]*eA*eG*eA*e[5mC]*eA*eA*eT*eG*eT*eA*eG*e[5mC]*eT) [compound 327919]
103

Give its % cells in cell cycle phase S value. Item: 338637 (antisense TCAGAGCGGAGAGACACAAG; all 2'-MOE, all phosphorothioate, methylation of C not given here) [compound 338637]
70

Give its % cells in cell cycle phase S value. Item: 340365 (antisense TACTTTATATAGAACACAAG; sugars from the 5' end e5 d10 e5, all phosphorothioate, methylation of C not given here) [compound 340365]
71

Give its % cells in cell cycle phase S value. Item: 327949 (antisense e[5mC]*eA*e[5mC]*eA*eA*eA*eT*eT*e[5mC]*eG*eG*eA*eT*e[5mC]*eT*eA*e[5mC]*eA*eG*eG*eG*eT*eA) [compound 327949]
84

----------
- System: Glut4
- Test: Glut4 mRNA expression in adipocytes (real-time PCR)
- Assay type: cell-based, human
- Settings: Table 18; differentiating adipocytes; control = treatment with ISIS 342673
In the oligonucleotide strings, read from the 5' end, every base follows the letter of its sugar. An asterisk marks phosphorothioate; unmarked linkages are phosphodiester. Other units and linkages are bracketed, terminal groups are in braces. A string of capitals states the bases alone. e = 2'-O-(2-methoxyethyl) (MOE); [5mC] = 5-methylcytosine
Assignment: determine reported GLUT4 mRNA for the given substances.

Give its GLUT4 mRNA value. Item: 341806 (antisense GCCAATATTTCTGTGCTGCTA; all 2'-MOE, all phosphorothioate, methylation of C not given here) [compound 341806]
69.4 percentage of control

Give its GLUT4 mRNA value. Item: 328114 (antisense eA*eA*eT*e[5mC]*eT*e[5mC]*eA*eT*eT*eT*eT*e[5mC]*eA*eT*eA*e[5mC]*eT*eT*eG*e[5mC]*eA) [compound 328114]
114.9 percentage of control

Give its GLUT4 mRNA value. Item: 328113 (antisense e[5mC]*eA*eA*eA*eA*eA*eT*eT*eA*eT*e[5mC]*eA*eG*e[5mC]*e[5mC]*eA*eG*eT*eT*eT*eA) [compound 328113]
99.9 percentage of control

Give its GLUT4 mRNA value. Item: 328106 (antisense eA*eT*eT*eG*eA*eT*eG*e[5mC]*eG*e[5mC]*e[5mC]*eA*eT*eT*eT*eG*eG*e[5mC]*e[5mC]*eT*eA) [compound 328106]
105.7 percentage of control

Give its GLUT4 mRNA value. Item: 328099 (antisense eA*eA*eG*eA*eA*e[5mC]*eA*eT*eT*eA*eA*eG*e[5mC]*eA*eT*e[5mC]*eT*eG*eA*e[5mC]*eA) [compound 328099]
86.8 percentage of control

Give its GLUT4 mRNA value. Item: 328107 (antisense e[5mC]*eT*eG*eT*eG*eA*e[5mC]*eT*eT*e[5mC]*eT*e[5mC]*eT*eA*eT*e[5mC]*eT*eG*e[5mC]*e[5mC]*eT) [compound 328107]
72.5 percentage of control

Give its GLUT4 mRNA value. Item: 327912 (antisense eA*eA*e[5mC]*eT*eA*eT*eA*e[5mC]*eA*eA*eT*e[5mC]*eT*eA*e[5mC]*eT*eA*e[5mC]*e[5mC]*eT*e[5mC]*eA) [compound 327912]
89.0 percentage of control

Give its GLUT4 mRNA value. Item: 328102 (antisense eG*e[5mC]*e[5mC]*e[5mC]*e[5mC]*eA*eT*eT*eA*eA*eT*eA*eT*eT*eT*eT*eA*eA*e[5mC]*e[5mC]*eA) [compound 328102]
79.2 percentage of control

Give its GLUT4 mRNA value. Item: 327969 (antisense eT*eG*eT*eG*eA*eG*eT*eT*e[5mC]*eT*eA*e[5mC]*e[5mC]*eA*eT*eT*eG*e[5mC]*e[5mC]*eA*eA*eA) [compound 327969]
60.6 percentage of control

Give its GLUT4 mRNA value. Item: 328101 (antisense eA*eA*eA*e[5mC]*e[5mC]*e[5mC]*e[5mC]*eT*eA*eT*e[5mC]*eA*e[5mC]*eG*eA*eT*eT*eA*eG*e[5mC]*eA) [compound 328101]
84.7 percentage of control

----------
Assignment: determine reported AP2 (mRNA expression) for the given substances.
- Test system: aP2
- Test: aP2 mRNA expression in adipocytes (real-time PCR)
- Type: cell-based, human
- Settings: adipocytes, 250 nM oligomeric compound, day nine post-transfection, relative to control (1.0); Table 15
In the oligonucleotide strings, read from the 5' end, every base follows the letter of its sugar. An asterisk marks phosphorothioate; unmarked linkages are phosphodiester. Other units and linkages are bracketed, terminal groups are in braces. A string of capitals states the bases alone. e = 2'-O-(2-methoxyethyl) (MOE); [5mC] = 5-methylcytosine
Number, no unit, nothing else.

Give its AP2 (mRNA expression) value. Item: 327919 (antisense eG*eA*eA*eA*e[5mC]*e[5mC]*e[5mC]*eA*eG*e[5mC]*eA*eG*eA*e[5mC]*eA*eA*eT*eG*eT*eA*eG*e[5mC]*eT) [compound 327919]
0.79

Give its AP2 (mRNA expression) value. Item: 327892 (antisense eA*e[5mC]*eT*eT*eT*e[5mC]*eG*eG*eT*eT*eA*eT*e[5mC]*eT*eA*eG*e[5mC]*eT*eT*eT*eA) [compound 327892]
0.31

Give its AP2 (mRNA expression) value. Item: 327913 (antisense eA*eA*e[5mC]*e[5mC]*eG*eA*eT*eT*eT*e[5mC]*eA*eA*eA*eT*eG*eG*eT*eG*e[5mC]*eT*eA*eG) [compound 327913]
0.99

Give its AP2 (mRNA expression) value. Item: 327905 (antisense e[5mC]*eA*eG*eA*e[5mC]*eT*e[5mC]*e[5mC]*eG*eG*eT*eG*eG*eA*eA*eT*eG*eA*eA*eG*eG*eA) [compound 327905]
1.14

Give its AP2 (mRNA expression) value. Item: 327922 (antisense eT*e[5mC]*eA*eG*eT*eT*eT*eT*eG*e[5mC]*eA*eT*eG*eG*eA*eT*eT*eT*eG*e[5mC]*eA*e[5mC]*eA) [compound 327922]
0.99

Give its AP2 (mRNA expression) value. Item: 327888 (antisense eA*eA*eT*eG*e[5mC]*e[5mC]*e[5mC]*e[5mC]*eT*eA*eA*eA*eA*eA*eT*e[5mC]*e[5mC]*eT*eT*eA*eT) [compound 327888]
1.18

Give its AP2 (mRNA expression) value. Item: 327880 (antisense eA*e[5mC]*eA*eA*eA*eT*eT*e[5mC]*eG*eG*eT*eT*e[5mC]*eT*eA*e[5mC]*eA*eG*eG*eG*eT*eA) [compound 327880]
0.97

Give its AP2 (mRNA expression) value. Item: 327878 (antisense e[5mC]*eT*eA*eG*eT*eG*eG*eT*e[5mC]*e[5mC]*eT*eA*eA*eA*e[5mC]*eA*eT*eT*eT*e[5mC]*eA*e[5mC]) [compound 327878]
0.85

Give its AP2 (mRNA expression) value. Item: 327889 (antisense eG*eT*eG*eG*eT*eA*eA*eT*e[5mC]*e[5mC]*e[5mC]*eT*eG*eG*e[5mC]*eA*eA*eT*eG*eT*eG*eA*eT) [compound 327889]
0.69

Give its AP2 (mRNA expression) value. Item: 327954 (antisense eA*e[5mC]*eA*eA*eA*eG*eT*eT*e[5mC]*eT*eG*eT*eG*eA*eT*eG*e[5mC]*eA*e[5mC]*eT*eG*eA) [compound 327954]
0.95

Give its AP2 (mRNA expression) value. Item: 327890 (antisense eA*eG*e[5mC]*eA*e[5mC]*eA*eA*eA*e[5mC]*eT*eA*e[5mC]*eT*eA*e[5mC]*e[5mC]*eT*e[5mC]*eA) [compound 327890]
0.91

Give its AP2 (mRNA expression) value. Item: 327901 (antisense eT*eG*eA*eG*e[5mC]*eT*eA*e[5mC]*eA*eG*eT*eG*e[5mC]*eT*eT*e[5mC]*eA*eT*e[5mC]*eT*e[5mC]*eA) [compound 327901]
0.42
